All values here come from patent US11504441B2.

Below: a set of entries, each annotated with reported tissue uptake at 120 h.
assay: in vivo; set-up: species or system mice; conditions: male, NODSCID 1L2RγKO, mouse, iv, total radioactivity, Stomach uptake
Answer in %ID/g, number only, no unit symbol.

- compound: "COc1ccc(CCCC(=O)NCC(=O)N[C@@H](CCCCNC(=O)CN2CCN(CC(=O)O)CCN(CC(=O)O)CCN(CC(=O)O)CC2)C(=O)NC[C@H]2CC[C@H](C(=O)N[C@@H](Cc3c4ccccc4cc4ccccc34)C(=O)NCCCC[C@H](NC(=O)N[C@@H](CCCC(=O)O)C(=O)O)C(=O)O)CC2)cc1 [177Lu-HTK03170, metal not drawn]"
  result unit: "%ID/g"
  assay result: 0.05

Alright, here's another compound for you.
Form: compound = COc1ccc(CCCC(=O)NCC(=O)N[C@@H](CCCCNC(=O)CN2CCN(CC(=O)O)CCN(CC(=O)O)CCN(CC(=O)O)CC2)C(=O)NC[C@H]2CC[C@H](C(=O)N[C@@H](Cc3c4ccccc4cc4ccccc34)C(=O)NCCCC[C@H](NC(=O)N[C@@H](CSCC(=O)O)C(=O)O)C(=O)O)CC2)cc1 [177Lu-HTK04048, metal not drawn] ; tissue uptake at 120 h = 0.03

* * *

assay: in vivo; parameters: species or system mice; conditions: male, NODSCID 1L2RγKO, mouse, iv, total radioactivity, Kidneys uptake
The entries below come with measured tissue uptake at 120 h values attached.
Write the answer as a number in %ID/g, unit excluded.

Worked set:
- molecule: "COc1ccc(CCCC(=O)NCC(=O)N[C@@H](CCCCNC(=O)CN2CCN(CC(=O)O)CCN(CC(=O)O)CCN(CC(=O)O)CC2)C(=O)NC[C@H]2CC[C@H](C(=O)N[C@@H](Cc3c4ccccc4cc4ccccc34)C(=O)NCCCC[C@H](NC(=O)N[C@@H](CCCC(=O)O)C(=O)O)C(=O)O)CC2)cc1 [177Lu-HTK03170, metal not drawn]"
  result unit: "%ID/g"
  assay result: 1.3
- molecule: "O=C(O)CCC[C@H](NC(=O)N[C@@H](CCCCNC(=O)[C@H](Cc1c2ccccc2cc2ccccc12)NC(=O)[C@H]1CC[C@H](CNC(=O)[C@H](CCCCNC(=O)CN2CCN(CC(=O)O)CCN(CC(=O)O)CCN(CC(=O)O)CC2)NC(=O)CNC(=O)CCCc2ccc(Cl)cc2)CC1)C(=O)O)C(=O)O [177Lu-HTK03153, metal not drawn]"
  result unit: "%ID/g"
  assay result: 2.81
- molecule: "O=C(O)CCC[C@H](NC(=O)N[C@@H](CCCCNC(=O)[C@H](Cc1c2ccccc2cc2ccccc12)NC(=O)[C@H]1CC[C@H](CNC(=O)CN2CCN(CC(=O)O)CCN(CC(=O)O)CCN(CC(=O)O)CC2)CC1)C(=O)O)C(=O)O [177Lu-HTK03149, metal not drawn]"
  result unit: "%ID/g"
  assay result: 0.28
- molecule: "COc1ccc(CCCC(=O)NCC(=O)N[C@@H](CCCCNC(=O)CN2CCN(CC(=O)O)CCN(CC(=O)O)CCN(CC(=O)O)CC2)C(=O)NC[C@H]2CC[C@H](C(=O)N[C@@H](Cc3c4ccccc4cc4ccccc34)C(=O)NCCCC[C@H](NC(=O)N[C@@H](COCC(=O)O)C(=O)O)C(=O)O)CC2)cc1 [177Lu-HTK04028, metal not drawn]"
  result unit: "%ID/g"
  assay result: 1.16

Read the next record carefully.
Data point: COc1ccc(CCCC(=O)NCC(=O)N[C@@H](CCCCNC(=O)CN2CCN(CC(=O)O)CCN(CC(=O)O)CCN(CC(=O)O)CC2)C(=O)NC[C@H]2CC[C@H](C(=O)N[C@@H](Cc3c4ccccc4cc4ccccc34)C(=O)NCCCC[C@H](NC(=O)N[C@@H](CSCC(=O)O)C(=O)O)C(=O)O)CC2)cc1 [177Lu-HTK04048, metal not drawn] ; tissue uptake at 120 h = 1.69

* * *

assay: in vivo; set-up: species or system mice; details: male, NODSCID 1L2RγKO, mouse, iv, total radioactivity, Kidneys uptake
Let's look at some molecules and their measured tissue uptake at 24 h.
Could you give me the number in %ID/g? Just the number is fine.

- molecule: "O=C(O)CCC[C@H](NC(=O)N[C@@H](CCCCNC(=O)[C@H](Cc1c2ccccc2cc2ccccc12)NC(=O)[C@H]1CC[C@H](CNC(=O)[C@H](CCCCNC(=O)CN2CCN(CC(=O)O)CCN(CC(=O)O)CCN(CC(=O)O)CC2)NC(=O)CNC(=O)CCCc2ccc(Cl)cc2)CC1)C(=O)O)C(=O)O [177Lu-HTK03153, metal not drawn]"
  property measured: "tissue uptake at 24 h"
  assay result: 8.81

# context switch: different molecule, same tissue uptake at 24 h
GET /value?item= O=C(O)CCC[C@H](NC(=O)N[C@@H](CCCCNC(=O)[C@H](Cc1c2ccccc2cc2ccccc12)NC(=O)[C@H]1CC[C@H](CNC(=O)CN2CCN(CC(=O)O)CCN(CC(=O)O)CCN(CC(=O)O)CC2)CC1)C(=O)O)C(=O)O [177Lu-HTK03149, metal not drawn] &field=tissue uptake at 24 h returns 0.6

* * *

test: in vivo; settings: male, NODSCID 1L2RγKO, mouse, iv, total radioactivity, Tail uptake
property measured: tissue uptake at 1 h (%ID/g)
Report only the number, with the unit %ID/g understood.

Here's what some known entries look like.
- compound: "O=C(O)CCC[C@H](NC(=O)N[C@@H](CCCCNC(=O)[C@H](Cc1c2ccccc2cc2ccccc12)NC(=O)[C@H]1CC[C@H](CNC(=O)CN2CCN(CC(=O)O)CCN(CC(=O)O)CCN(CC(=O)O)CC2)CC1)C(=O)O)C(=O)O [68Ga-HTK03149, metal not drawn]"
  tissue uptake at 1 h / %ID/g: 0.86
- compound: "O=C(O)C[C@H](NC(=O)N[C@@H](CCCCNC(=O)[C@H](Cc1c2ccccc2cc2ccccc12)NC(=O)[C@H]1CC[C@H](CNC(=O)CN2CCN(CC(=O)O)CCN(CC(=O)O)CCN(CC(=O)O)CC2)CC1)C(=O)O)C(=O)O [68Ga-HTK03161, metal not drawn]"
  tissue uptake at 1 h / %ID/g: 0.55
- compound: "O=C(O)CCCCC(NC(=O)N[C@@H](CCCCNC(=O)[C@H](Cc1c2ccccc2cc2ccccc12)NC(=O)[C@H]1CC[C@H](CNC(=O)CN2CCN(CC(=O)O)CCN(CC(=O)O)CCN(CC(=O)O)CC2)CC1)C(=O)O)C(=O)O (single isomer, unassigned) [68Ga-HTK03189A, metal not drawn]"
  tissue uptake at 1 h / %ID/g: 0.77

Next:
Noted for O=C(O)CCC[C@H](NC(=O)N[C@@H](CCCCNC(=O)[C@H](Cc1c2ccccc2cc2ccccc12)NC(=O)c1ccc(NC(=O)CN2CCN(CC(=O)O)CCN(CC(=O)O)CCN(CC(=O)O)CC2)cc1)C(=O)O)C(=O)O [68Ga-HTK04041, metal not drawn] : its tissue uptake at 1 h reads 0.57

* * *

test: in vivo; conditions: male, NODSCID 1L2RγKO, mouse, iv, total radioactivity, Urine uptake
property measured: excreta dose per gram or mL at 1 h (%ID/g)
Value expressed in %ID/g; do not type the unit.

- compound: "O=C(O)CCC[C@H](NC(=O)N[C@@H](CCCCNC(=O)[C@H](Cc1ccc2ccccc2c1)NC(=O)[C@H]1CC[C@H](CNC(=O)CN2CCN(CC(=O)O)CCN(CC(=O)O)CCN(CC(=O)O)CC2)CC1)C(=O)O)C(=O)O [68Ga-HTK03169, metal not drawn]"
  assay result: 421
- compound: "O=C(O)CCC[C@H](NC(=O)N[C@@H](CCCCNC(=O)[C@H](Cc1c2ccccc2cc2ccccc12)NC(=O)c1ccc(NC(=O)CN2CCN(CC(=O)O)CCN(CC(=O)O)CCN(CC(=O)O)CC2)cc1)C(=O)O)C(=O)O [68Ga-HTK04041, metal not drawn]"
  assay result: 396
- compound: "O=C(O)CCC[C@H](NC(=O)N[C@@H](CCCCNC(=O)[C@H](Cc1c2ccccc2cc2ccccc12)NC(=O)[C@H]1CC[C@H](CNC(=O)CN2CCN(CC(=O)O)CCN(CC(=O)O)CCN(CC(=O)O)CC2)CC1)C(=O)O)C(=O)O [68Ga-HTK03149, metal not drawn]"
  assay result: 336

Form: compound = O=C(O)CCC[C@H](NC(=O)N[C@@H](CCCCNC(=O)[C@H](Cc1c2ccccc2cc2ccccc12)NC(=O)Cc1ccc(CNC(=O)CN2CCN(CC(=O)O)CCN(CC(=O)O)CCN(CC(=O)O)CC2)cc1)C(=O)O)C(=O)O [68Ga-HTK04036, metal not drawn] ; excreta dose per gram or mL at 1 h = 422

* * *

test: in vivo; settings: male, NODSCID 1L2RγKO, mouse, iv, total radioactivity, Tumor uptake
Rule for this label: 1.0 means tissue uptake at 1 h is less than 20 %ID/g; 0.0 means tissue uptake at 1 h is at least 20 %ID/g.

Hi there! Is tissue uptake at 1 h for O=C(O)CCC[C@H](NC(=O)N[C@@H](CCCCNC(=O)[C@H](Cc1c2ccccc2cc2ccccc12)NC(=O)Cc1ccc(CNC(=O)CN2CCN(CC(=O)O)CCN(CC(=O)O)CCN(CC(=O)O)CC2)cc1)C(=O)O)C(=O)O [68Ga-HTK04036, metal not drawn] below 20 %ID/g, do you know?
1.0

is_below(tissue uptake at 1 h, 20 %ID/g) for O=C(O)CSC[C@H](NC(=O)N[C@@H](CCCCNC(=O)[C@H](Cc1c2ccccc2cc2ccccc12)NC(=O)[C@H]1CC[C@H](CNC(=O)CN2CCN(CC(=O)O)CCN(CC(=O)O)CCN(CC(=O)O)CC2)CC1)C(=O)O)C(=O)O [68Ga-HTK03177, metal not drawn] ?
0.0

Is it true that tissue uptake at 1 h reported for O=C(O)CN1CCN(CC(=O)O)CCN(CC(=O)NC[C@H]2CC[C@H](C(=O)N[C@@H](Cc3c4ccccc4cc4ccccc34)C(=O)NCCCC[C@H](NC(=O)N[C@@H](C[C@H](F)C(=O)O)C(=O)O)C(=O)O)CC2)CCN(CC(=O)O)CC1 [68Ga-HTK04040, metal not drawn] is less than 20 %ID/g?
1.0

State whether 20 %ID/g exceeds tissue uptake at 1 h recorded for O=C(O)CCC[C@H](NC(=O)N[C@@H](CCCCNC(=O)[C@H](Cc1ccc2ccccc2c1)NC(=O)[C@H]1CC[C@H](CNC(=O)CN2CCN(CC(=O)O)CCN(CC(=O)O)CCN(CC(=O)O)CC2)CC1)C(=O)O)C(=O)O [68Ga-HTK03169, metal not drawn] .
1.0
